biological target: T1, hRET.mmh (human, UniProt P07949 29-635, biotinylated in the ELISA of Example 4 (biot-hRET.mmh); not in the SPR of Example 3); test: competition sandwich ELISA: 1 nM biot-hRET.mmh + antibody, plate-coated GDNF/GFRα1 co-complex
T1 construct: also called biot-hRET.mmh; soluble monomeric human RET
testReadout: % Max Blocking (%)
Numbers only, in %.

Form field: reported % Max Blocking of H2M7086N (antibody, mouse IgG2, V domains shown, human variable domains with mouse IgG2 Fc (H2M prefix)) VH: QVQLVESGGGVVQPGRSLRLSCVVSGFTFSNYGMHWVRQGPGRGLEWLALIWYDGSDKYYAESVRGRFTISRDNSKNTVYLQMNSLRAEDTAMYYCTRDRIFDYWGQGTLVTVSS VL: AIQMTQSPSSLSASVGDRVTITCRASQDIRNDLGWYQHNPGKAPNLLIYAASTLQIGVPSRFRGSGSGTDFTLTISSLQPEDFATYYCLQDFDYPLSFGGGTKVEIR 96
